Target: TNF-α (recombinant mouse TNF-α) (Mus musculus)
Construct: recombinant, purchased from Sigma; amine-coupled to CM5 chip
Sequence (P06804 80-235): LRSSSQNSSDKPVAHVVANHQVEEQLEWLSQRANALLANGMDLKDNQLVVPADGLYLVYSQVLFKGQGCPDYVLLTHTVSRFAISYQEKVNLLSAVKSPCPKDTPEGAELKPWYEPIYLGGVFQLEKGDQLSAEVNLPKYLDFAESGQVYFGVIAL
Test: SPR (BIAcore T200, TNF-α immobilised on CM5, […] model)
PROPERTY: Kd (µM)
Answer with a number only, understood to be in µM.

Input line: State, for TNF-α (recombinant mouse TNF-α) (Mus musculus), measured Kd of the molecule listed here: O=c1c(O)c(-c2ccc(O)c(O)c2)oc2cc(O)cc(O)c12
Output line: 35

Input line: Provide Kd, system TNF-α (recombinant mouse TNF-α) (Mus musculus), entry Oc1ccc(CC2NCCc3cc(O)c(O)cc32)cc1 (centres unmarked)
Output line: 67
